- TESTED_TARGET: ALDH2 (Homo sapiens, UniProt P05091)
- Construct: His-tag (N); made in house; host or cells: E. coli BL21
- Sequence (P05091 18-517): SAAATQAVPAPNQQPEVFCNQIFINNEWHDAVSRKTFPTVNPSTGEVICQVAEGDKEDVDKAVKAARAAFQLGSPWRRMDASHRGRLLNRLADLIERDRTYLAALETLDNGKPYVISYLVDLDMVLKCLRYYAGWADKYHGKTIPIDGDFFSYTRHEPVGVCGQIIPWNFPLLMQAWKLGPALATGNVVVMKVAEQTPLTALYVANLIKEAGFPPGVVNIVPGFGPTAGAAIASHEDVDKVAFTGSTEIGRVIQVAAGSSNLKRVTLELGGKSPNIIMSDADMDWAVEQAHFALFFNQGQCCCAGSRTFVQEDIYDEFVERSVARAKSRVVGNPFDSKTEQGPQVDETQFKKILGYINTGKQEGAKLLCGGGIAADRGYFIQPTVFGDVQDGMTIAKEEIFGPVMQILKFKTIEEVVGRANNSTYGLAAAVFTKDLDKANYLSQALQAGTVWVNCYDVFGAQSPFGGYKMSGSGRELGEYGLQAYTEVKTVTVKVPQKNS
- ASSAY_NOTES: ALDH2 activity with 20 μM of the compound (Table 3)
- Type: biochemical
- APPLIED_CONDITIONS: 20 μM compound
MEASUREMENT_TYPE: activity at 20 µM

Req: Give the reported activity at 20 µM for COc1ccc(CNC(=O)c2cc(-c3cccc(F)c3CO)ccc2OCC2CC2)cc1F (system: ALDH2 (Homo sapiens, UniProt P05091)).
Resp: > 250%

Req: # returns recorded activity at 20 µM (system: ALDH2 (Homo sapiens, UniProt P05091)) for COc1ccc(CNC(=O)c2cc(-c3cnccc3CO)ccc2OC2CCCC2)cc1F
Resp: > 250%

Req: Lab note: need activity at 20 µM for O=C(NCc1ccc2c(c1)OCO2)c1cc(-c2ncccc2CO)ccc1OCC1CC1 on ALDH2 (Homo sapiens, UniProt P05091), anyone have it?
Resp: 150 to 250%

Req: Record lookup: for ALDH2 (Homo sapiens, UniProt P05091), what activity at 20 µM belongs to COc1ccc(CNC(=O)c2cc(-c3ccc(F)cc3CO)ccc2OCC2CC2)cc1F ?
Resp: > 250%

Req: Give the reported activity at 20 µM for COc1ccc(CNC(=O)c2cc(-c3ccccc3/C=C/C(C)=O)cnc2OCC2CC2)cc1F (system: ALDH2 (Homo sapiens, UniProt P05091)).
Resp: 100 to 150%

Req: Identify the measured activity at 20 µM of COc1ccc(CNC(=O)c2cc(-c3ccccc3/C=N/O)cnc2OCC2CC2)cc1F for ALDH2 (Homo sapiens, UniProt P05091).
Resp: 100 to 150%

Req: Query activity at 20 µM on ALDH2 (Homo sapiens, UniProt P05091) for COc1ccc(CNC(=O)c2cc(-c3cc(F)ccc3CO)cnc2OCC2CC2)cc1F
Resp: > 250%

Req: What measured activity at 20 µM is associated with COc1ccc(CNC(=O)c2cc(-c3ncccc3CO)ccc2OCC2CCCC2)cc1F on ALDH2 (Homo sapiens, UniProt P05091)?
Resp: > 250%

Req: Query activity at 20 µM on ALDH2 (Homo sapiens, UniProt P05091) for COc1ccc(CNC(=O)c2cc(-c3ccccc3C(=O)O)ccc2OCC2CC2)cc1F
Resp: 100 to 150%
